# method.description: Pharmacokinetic analysis
# Assay type: in vivo, mice
# condition.description: female, CD1, mouse, ip; mice, single injection 20 mg/kg i.p., plasma; read-out: AUClast (area under the curve to last time point)
readout.type: AUC(0-t) (ng·h/mL)
Unit ng·h/mL implied. Number only.

Query :: Form field: reported AUC(0-t) of `OCc1ccc2cc(-c3ccc(O)c(C45CC6CC(CC(C6)C4)C5)c3)ccc2c1`
Result :: 16400

----------
# method.description: Pharmacokinetic analysis
# Assay type: in vivo, mice
# condition.description: female, CD1, mouse, ip; mice, single injection 20 mg/kg i.p., plasma; read-out: AUCinf (area under the curve to infinite)
readout.type: AUC(0-inf) (ng·h/mL)
Write the number in ng·h/mL without appending the unit.

Query :: Entry OCc1ccc2cc(-c3ccc(O)c(C45CC6CC(CC(C6)C4)C5)c3)ccc2c1 [Analog 2] : reported AUC(0-inf) = ?
Result :: 16500
